These entries and their values trace back to ChEMBL document CHEMBL3885861.

Organism: Rattus norvegicus
ASSAY_EXPLANATION: Open TG-GATES - Regimen: Daily Repeat
Assay type: toxicity, organism-based, Sprague-Dawley
Parameters: regimen Daily Repeat, gender Male, age 6 weeks
CONDITION: in vivo, po, 0 mg/kg, […], route gavage, dose level Control, time 28 day
Measured TERMINAL_BW by item
Give a bare numeral; the unit g is implied.

Study these solved cases before continuing.
MOLECULE	TERMINAL_BW (g)
CO[C@H]1/C=C/O[C@@]2(C)Oc3c(C)c(O)c4c(O)c(c(/C=N/N5CCN(C)CC5)c(O)c4c3C2=O)NC(=O)/C(C)=C\C=C\[C@H](C)[C@H](O)[C@@H](C)[C@@H](O)[C@@H](C)[C@H](OC(C)=O)[C@@H]1C	390.1
COc1ccc(Cc2nccc3cc(OC)c(OC)cc23)cc1OC	413.6
COc1ccc2c(c1)c(CC(=O)O)c(C)n2C(=O)c1ccc(Cl)cc1	433.9
CSc1ccc2c(c1)N(CCC1CCCCN1C)c1ccccc1S2 (stereo not given)	411.3
C[C@H](CS)C(=O)N1CCC[C@H]1C(=O)O	402.1
NC(=O)N/N=C/c1ccc([N+](=O)[O-])o1	406

Incoming: Can you share its TERMINAL_BW? I mean this molecule: `Clc1ccccc1CN1CCc2sccc2C1`
Outgoing: 400.8

Incoming: Consider the molecule `O=C(O)c1cc(/N=N/c2ccc(S(=O)(=O)Nc3ccccn3)cc2)ccc1O` and give its measured TERMINAL_BW.
Outgoing: 377.2

Incoming: Need TERMINAL_BW, item NC(=O)N1c2ccccc2C=Cc2ccccc21 [CARBAMAZEPINE]
Outgoing: 388.8

Incoming: Please report the recorded TERMINAL_BW for CCc1cc(C(N)=S)ccn1 [ETHIONAMIDE] .
Outgoing: 416.8
